experimental target: T1, human LTBP3-proTGFβ1 complex (human, UniProt Q9NS15 44-1303; P01137 30-390, limits assumed)
T1 construct: Exemplary entries; also called Hu LTBP3-proTGFβ1; huLTBP3 proTGFb1
T1 sequence (Q9NS15 44-1303 limits assumed, chain 1 of 2): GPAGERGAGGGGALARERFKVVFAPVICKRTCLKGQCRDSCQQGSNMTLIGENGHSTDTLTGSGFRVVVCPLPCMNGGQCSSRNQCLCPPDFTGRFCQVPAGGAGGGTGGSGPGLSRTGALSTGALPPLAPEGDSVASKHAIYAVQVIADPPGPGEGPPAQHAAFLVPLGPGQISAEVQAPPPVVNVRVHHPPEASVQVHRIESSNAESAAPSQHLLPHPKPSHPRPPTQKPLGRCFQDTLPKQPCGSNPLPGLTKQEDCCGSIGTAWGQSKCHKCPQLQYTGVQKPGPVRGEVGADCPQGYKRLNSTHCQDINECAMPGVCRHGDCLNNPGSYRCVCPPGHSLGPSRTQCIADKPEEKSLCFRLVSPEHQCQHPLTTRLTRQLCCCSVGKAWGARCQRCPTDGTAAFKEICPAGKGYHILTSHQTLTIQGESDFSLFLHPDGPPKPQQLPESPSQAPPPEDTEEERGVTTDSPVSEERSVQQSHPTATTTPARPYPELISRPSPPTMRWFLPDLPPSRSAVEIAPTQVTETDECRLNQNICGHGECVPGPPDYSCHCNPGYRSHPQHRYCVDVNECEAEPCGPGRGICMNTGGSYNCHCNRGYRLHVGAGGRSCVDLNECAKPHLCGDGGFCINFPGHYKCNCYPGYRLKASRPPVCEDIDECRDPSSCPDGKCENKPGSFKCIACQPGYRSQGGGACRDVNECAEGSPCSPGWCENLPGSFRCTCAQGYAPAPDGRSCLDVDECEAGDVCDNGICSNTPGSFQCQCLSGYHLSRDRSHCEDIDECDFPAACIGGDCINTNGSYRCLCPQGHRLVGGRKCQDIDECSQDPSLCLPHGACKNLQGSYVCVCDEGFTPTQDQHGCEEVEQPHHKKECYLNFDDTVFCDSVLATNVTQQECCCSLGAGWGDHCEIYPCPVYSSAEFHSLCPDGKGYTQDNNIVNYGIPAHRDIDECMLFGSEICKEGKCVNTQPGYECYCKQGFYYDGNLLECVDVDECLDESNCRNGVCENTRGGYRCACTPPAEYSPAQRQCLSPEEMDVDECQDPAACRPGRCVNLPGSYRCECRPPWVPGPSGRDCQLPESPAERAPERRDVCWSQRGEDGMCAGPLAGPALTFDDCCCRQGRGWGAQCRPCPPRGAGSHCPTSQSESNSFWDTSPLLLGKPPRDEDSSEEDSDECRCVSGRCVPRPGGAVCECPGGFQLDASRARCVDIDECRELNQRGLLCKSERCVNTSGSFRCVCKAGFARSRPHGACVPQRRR
T1 sequence (P01137 30-390 limits assumed, chain 2 of 2): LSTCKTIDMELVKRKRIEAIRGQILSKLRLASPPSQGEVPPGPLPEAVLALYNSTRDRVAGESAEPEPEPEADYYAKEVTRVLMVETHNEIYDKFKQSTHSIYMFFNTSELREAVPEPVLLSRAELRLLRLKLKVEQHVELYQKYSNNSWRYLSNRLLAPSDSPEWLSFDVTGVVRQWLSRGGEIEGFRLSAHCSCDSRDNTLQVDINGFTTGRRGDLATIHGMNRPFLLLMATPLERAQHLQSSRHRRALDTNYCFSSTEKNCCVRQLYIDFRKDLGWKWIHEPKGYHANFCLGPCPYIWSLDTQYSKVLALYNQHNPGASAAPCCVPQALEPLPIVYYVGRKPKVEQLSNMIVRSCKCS
experiment description: Octet BLI, IgG captured
Kindly supply the reported kon values for the records listed here.
Write the answer as a number in M⁻¹ s⁻¹, unit excluded.

Could you share which kon value was measured for SR-AB63 (antibody, IgG1, V domains shown, Cycle 3, lineage SR-AB26) VH: QLQLQESGPGLVKPSETLSLTCTVSGGSIRSSSYYWGWIRQPPGKGLEWIGSISYSATTYYNPSLKSRVTISVDTSKNQFSLKLSSVTAADTAVYYCAGDPSYDSIAGMQVWGQGTTVTVSS VL: DIQLTQSPSSLSASVGDRVTITCRASQSISSYLNWYQQKPGKAPKLLIYAASNLQSGVPSRFSGSGSGTDFTLTISSLQPEDFATYYCQQSFDWPLTFGGGTKVEIK ?
159000

Entry SR-AB43 (antibody, IgG1, V domains shown, Cycle 3, lineage SR-AB23) VH: QVQLVESGGGVVQPGRSLRLSCAASGFTFRSYVMHWVRQAPGKGLEWVAVISHEGSLKYYADSVKGRFTISRDNSKNTLYLQMNSLRAEDTAVYYCARPRIAARRGGFGYWGQGTLVTVSS VL: NFMLTQPHSVSESPGKTVTISCTRSSGNIDYNYVQWYQQRPGSSPTTVIYEDNVRPSGVPDRFSGSIDSSSNSASLTISGLKTEDEADYYCQSYDSDNQRVVFGGGTKLTVL has what kon?
337000

Fill in: kon of SR-AB37 (antibody, IgG1, V domains shown, Cycle 3, lineage SR-AB22) VH: QVQLVESGGGVVQPGRSLRLSCAASGFTFRSYVMHWVRQAPGKGLEWVAVISHEGSLKYYADSVKGRFTISRDNSKNTLYLQMNSLRAEDTAVYYCAVPRIAARRGGFGYWGQGTLVTVSS VL: NFMLTQPHSVSESPGKTVTISCTRSSGLIDDNYVQWYQQRPGSSPTTVIYEDNQRPSGVPDRFSGSIDSSSNSASLTISGLKTEDEADYYCQSYDSDLQRVVFGGGTKLTVL is ___
545000
